# credit: patent US20220363770A1

- target-of-assay: T1, human CGRP receptor (human CRLR / human RAMP1 heterodimer) (human, UniProt Q16602 23-461; O60894 27-148)
- T1 construct: Full-length receptor: endogenous on SK-N-MC (HTB-10) cells in the cAMP assay; also called hCGRP receptor on SK-N-MC (HTB-10) cells; Human CGRP Receptor/AMID detergent-solubilized cell lysate
- T1 sequence (Q16602 23-461 limits assumed, chain 1 of 2): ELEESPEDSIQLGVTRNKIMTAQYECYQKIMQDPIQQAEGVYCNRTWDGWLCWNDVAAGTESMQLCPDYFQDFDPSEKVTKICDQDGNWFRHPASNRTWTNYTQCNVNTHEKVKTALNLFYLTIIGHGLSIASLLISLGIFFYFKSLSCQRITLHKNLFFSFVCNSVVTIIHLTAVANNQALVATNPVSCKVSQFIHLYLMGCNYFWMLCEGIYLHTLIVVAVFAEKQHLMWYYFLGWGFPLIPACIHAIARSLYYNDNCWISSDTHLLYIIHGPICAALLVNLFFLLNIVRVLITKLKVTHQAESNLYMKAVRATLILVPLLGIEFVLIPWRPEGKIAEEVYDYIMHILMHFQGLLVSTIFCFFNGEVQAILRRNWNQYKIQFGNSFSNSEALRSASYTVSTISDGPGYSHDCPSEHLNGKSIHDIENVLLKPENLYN
- T1 sequence (O60894 27-148 limits assumed, chain 2 of 2): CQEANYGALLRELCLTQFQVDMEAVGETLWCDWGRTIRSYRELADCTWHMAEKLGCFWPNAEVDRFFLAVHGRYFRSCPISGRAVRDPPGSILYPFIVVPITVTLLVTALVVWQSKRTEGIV
- protocol-text: yeast-displayed Fab, FACS, detergent-solubilized lysate of human CGRP receptor-expressing cells vs blank cells
quantity-name: Human CGRP Receptor/Blank Cells Specific Binding (ratio)
Numeric answer only, unit ratio assumed.

Guide cases for Human CGRP Receptor/Blank Cells Specific Binding, answers given:
anti-CGRP receptor variant 08, yeast-displayed Fab (Fab, V domains shown, also called Variant Ab ID 08) VH: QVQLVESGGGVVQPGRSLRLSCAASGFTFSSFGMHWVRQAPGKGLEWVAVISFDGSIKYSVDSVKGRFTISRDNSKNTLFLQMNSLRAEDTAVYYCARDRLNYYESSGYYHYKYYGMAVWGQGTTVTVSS VL: QSVLTQPPSVSAAPGQKVTISCSGSYSNIGWWPVSWYQQLPGTAPKLLIYDNNKRPSGIPDRFSGSKSGTSATLGITGLQTGDEADYYCGTWDSRLSAVVFGGGTKLTVLG    18
anti-CGRP receptor variant 09, yeast-displayed Fab (Fab, V domains shown, also called Variant Ab ID 09) VH: QVQLVESGGGVVQPGRSLRLSCAASGFTFSSFGMHWVRQAPGKGLEWVAVISFAGEIDYYVDSVKGRFTISRDNSKNTLFLQMNSLRAEDTAVYYCARDRLNYYESSGYYHYKYYGMAVWGQGTTVTVSS VL: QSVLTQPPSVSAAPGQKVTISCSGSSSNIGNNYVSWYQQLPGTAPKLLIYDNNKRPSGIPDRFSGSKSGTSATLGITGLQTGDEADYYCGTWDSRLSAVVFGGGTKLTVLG    10.4

Okay, next one:
Look up Human CGRP Receptor/Blank Cells Specific Binding for this binder: anti-CGRP receptor variant 15, yeast-displayed Fab (Fab, V domains shown, also called Variant Ab ID 15) VH: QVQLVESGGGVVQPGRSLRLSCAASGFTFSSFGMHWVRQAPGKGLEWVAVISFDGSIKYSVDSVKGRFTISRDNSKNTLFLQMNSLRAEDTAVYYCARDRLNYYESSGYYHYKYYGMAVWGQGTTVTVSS VL: QSVLTQPPSVSAAPGQKVTISCSGSSSNIGNNYVSWYQQLPGTAPKLLIYDNNKRPSGIPDRFSGSKSGTSATLGITGLQTGDEADYYCGTWDWWRKAVIFGGGTKLTVLG 11.9
